Source: patent US20040058393A1

- Target: T1, human TPO receptor (MPL) expressed on Ba/F3 cells (human, UniProt P40238 26-635)
- T1 sequence (looked up): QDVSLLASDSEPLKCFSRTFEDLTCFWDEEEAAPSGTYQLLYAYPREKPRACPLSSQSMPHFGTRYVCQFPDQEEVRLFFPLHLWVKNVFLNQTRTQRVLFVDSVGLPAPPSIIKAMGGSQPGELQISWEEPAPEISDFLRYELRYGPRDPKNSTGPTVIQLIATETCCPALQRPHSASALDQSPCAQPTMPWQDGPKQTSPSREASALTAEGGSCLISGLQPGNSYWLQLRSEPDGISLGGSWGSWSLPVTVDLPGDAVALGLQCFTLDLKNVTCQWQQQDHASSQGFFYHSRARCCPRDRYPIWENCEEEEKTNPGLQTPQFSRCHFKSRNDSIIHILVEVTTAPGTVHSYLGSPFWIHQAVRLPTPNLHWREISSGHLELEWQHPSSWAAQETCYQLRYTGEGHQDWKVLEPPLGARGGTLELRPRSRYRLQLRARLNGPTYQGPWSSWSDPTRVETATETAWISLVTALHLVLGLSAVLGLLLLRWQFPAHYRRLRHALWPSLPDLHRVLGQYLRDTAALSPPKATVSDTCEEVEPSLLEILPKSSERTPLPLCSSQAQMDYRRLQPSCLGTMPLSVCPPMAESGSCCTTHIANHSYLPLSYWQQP
- Assay Summary: cell-based or functional assay
Reported ED50, TPO-like agonist activity (proliferation of BaF/mpl cells, WST-8) by item:
Reply with just the number (in nM).

Observe how each entry below is paired with its result.
antibody 12B5 (IgG) (antibody, V domains shown) VH: QVQLVQSGGGLVRPGGSLSLSCAVSGITLRTYGMHWVRQAPGKGLEWVAGISFDGRSEYYADSVQGRFTISRDSSKNTLYLQMNSLRAEDTAVYYCARGAHYGFDIWGQGTMVTVSS VL: DIQMTQSPSTLSASIGDRVTITCRASEGIYHWLAWYQQKPGKAPKLLIYKASSLASGAPSRFSGSGSGTDFTLTISSLQPDDFATYYCQQYSNYPLTFGGGTKLEIK: 29
reconstructed 12B5 single chain Fv (sc12B5), culture supernatant of COS-7 cells (scFv) scFv: QVQLVQSGGGLVRPGGSLSLSCAVSGITLRTYGMHWVRQAPGKGLEWVAGISFDGRSEYYADSVQGRFTISRDSSKNTLYLQMNSLRAEDTAVYYCARGAHYGFDIWGQGTMVTVSSGGGGSGGGGSGGGGSDIQMTQSPSTLSASIGDRVTITCRASEGIYHWLAWYQQKPGKAPKLLIYKASSLASGAPSRFSGSGSGTDFTLTISSLQPDDFATYYCQQYSNYPLTFGGGTKLEIKDYKDDDDK: 75

Proceed to the following item.
Notebook: sc12B5 monomer (scFv) scFv: QVQLVQSGGGLVRPGGSLSLSCAVSGITLRTYGMHWVRQAPGKGLEWVAGISFDGRSEYYADSVQGRFTISRDSSKNTLYLQMNSLRAEDTAVYYCARGAHYGFDIWGQGTMVTVSSGGGGSGGGGSGGGGSDIQMTQSPSTLSASIGDRVTITCRASEGIYHWLAWYQQKPGKAPKLLIYKASSLASGAPSRFSGSGSGTDFTLTISSLQPDDFATYYCQQYSNYPLTFGGGTKLEIKDYKDDDDK , ED50, TPO-like agonist activity (proliferation of BaF/mpl cells, WST-8) read as 4440
